Species on record: Homo sapiens
method.description: Selectivity ratio of IC50 for mTOR to IC50 for human recombinant SMG1
attribute.measured: Ratio IC50
# respond with the number and nothing more

Task: Give its Ratio IC50 value. Item: NS(=O)(=O)c1cccc(Nc2nccc(-c3ccnc(N4C5CCC4COC5)c3)n2)c1
Output: 130

Task: Can you handle OCCCNc1cc(-c2ccnc(Nc3cccc(Cl)c3)n2)ccn1 next?
Output: 8

Task: Can you handle NS(=O)(=O)c1cccc(Nc2nccc(-c3ccnc(NCCCO)c3)n2)c1 next?
Output: 15

Task: Can you handle NS(=O)(=O)c1cccc(Nc2nccc(-c3ccnc(N4CCCCC4)c3)n2)c1 next?
Output: 47

Task: Can you handle FC(F)(F)c1cccc(Nc2nccc(-c3ccnc(N4CCOCC4)c3)n2)c1 next?
Output: 7

Task: Can you handle CCN(CC)S(=O)(=O)c1cc(Nc2nccc(-c3ccnc(-c4ccc(NC(=O)NC)cc4)c3)n2)ccc1C next?
Output: 440

Task: Can you handle CCN(CC)S(=O)(=O)c1cc(Nc2nccc(-c3ccnc(-c4ccc(NC(=O)NC)cc4)c3)n2)ccc1Cl next?
Output: 455

Task: Can you handle CN1CCN(c2cc(-c3ccnc(Nc4cccc(S(N)(=O)=O)c4)n3)ccn2)CC1 next?
Output: 10

Task: Can you handle CCN(CC)S(=O)(=O)c1cccc(Nc2nccc(-c3ccnc(-c4ccc(NC(=O)NC)cc4)c3)n2)c1 next?
Output: 125

Task: Can you handle COc1cccc(Nc2nccc(-c3ccnc(N4CCOCC4)c3)n2)c1 next?
Output: 4

Task: Can you handle NS(=O)(=O)c1cccc(Nc2nccc(-c3ccnc(N4CC5CCC(C4)O5)c3)n2)c1 next?
Output: 33

Measured values drawn from ChEMBL document CHEMBL2157945 for this set.
